Assay: Electrical activity assay on cell lines treated with a given drug. DMSO was used as a vehicle and a control, unblinded dofetilide was used as a control.
Type: ADME, cell-based
Conditions: human, ipsc-cm, 1 µM; concentration (um) 1 uM
MEASURED PROPERTY: FPDc

INSERT INTO assay_data (compound, test_value) VALUES
  ('CC(C)(C)c1ccc(C(O)CCCN2CCC(C(O)(c3ccccc3)c3ccccc3)CC2)cc1 (stereo unspecified) [TERFENADINE]', 19.11),
  ('COc1cc2c(Nc3ccc(Br)cc3F)ncnc2cc1OCC1CCN(C)CC1 [VANDETANIB]', 22.97),
  ('COc1ccccc1OCC(O)CN1CCN(CC(=O)Nc2c(C)cccc2C)CC1 (stereo unspecified) [RANOLAZINE]', 22.6),
  ('CC(C)NCC(O)c1ccc(NS(C)(=O)=O)cc1 (stereo unspecified) [SOTALOL]', 20.88),
  ('CC(C)N(CCC(C(N)=O)(c1ccccc1)c1ccccn1)C(C)C (stereo unspecified) [DISOPYRAMIDE]', 24.45);

---

Assay: Electrical activity assay on cell lines treated with a given drug. DMSO was used as a vehicle and a control, unblinded dofetilide was used as a control.
Format: ADME, cell-based
Design: unit not given here
Settings: human, ipsc-cm, 1 µM; concentration (um) 1 uM
FPDc values for the molecules below.
MEASURED PROPERTY: FPDc

INSERT INTO results (molecule, test_value) VALUES
  ('CC(C)COCC(CN(Cc1ccccc1)c1ccccc1)N1CCCC1 (stereo not given)', 0.04541),
  ('CC[C@H]1OC(=O)[C@H](C)[C@@H](O[C@H]2C[C@@](C)(OC)[C@@H](O)[C@H](C)O2)[C@H](C)[C@@H](O[C@@H]2O[C@H](C)C[C@H](N(C)C)[C@H]2O)[C@](C)(OC)C[C@@H](C)C(=O)[C@H](C)[C@@H](O)[C@]1(C)O', 0.03611),
  ('CN1CCN(CCCCN2C(=O)CN(/N=C/c3ccc(-c4ccc(Cl)cc4)o3)C2=O)CC1 [AZIMILIDE]', 0.04651);

---

# FPD measurement listing for each entry below
Experiment: Electrical activity assay on cell lines treated with a given drug. DMSO was used as a vehicle and a control, unblinded dofetilide was used as a control.
Conditions: human, ipsc-cm, 1 µM
MEASURED PROPERTY: FPD measurement (FPDc)

INSERT INTO assay_data (compound, measured_property, test_value) VALUES
  ('CC(C)N(CCC(C(N)=O)(c1ccccc1)c1ccccn1)C(C)C (configuration not stated) [DISOPYRAMIDE]', 'FPD measurement', 63.45),
  ('Cc1cccc(C)c1OCC(C)N (configuration not stated)', 'FPD measurement', 57.83),
  ('O=C(CCCN1CC=C(n2c(=O)[nH]c3ccccc32)CC1)c1ccc(F)cc1', 'FPD measurement', 67.51),
  ('COc1cc2c(Nc3ccc(Br)cc3F)ncnc2cc1OCC1CCN(C)CC1', 'FPD measurement', 63.98),
  ('COc1ccccc1OCC(O)CN1CCN(CC(=O)Nc2c(C)cccc2C)CC1 (configuration not stated)', 'FPD measurement', 53.66),
  ('CC(C)NCC(O)c1ccc(NS(C)(=O)=O)cc1 (configuration not stated)', 'FPD measurement', 63.35);
